// values below are reported koff rate constant determined by SPR
System: bEVs from A. baumannii
Test: SPR interaction with immobilized bEVs
Conditions: A. baumannii bEVs; 400 s dissociation phase, Figueira et al. 2017 formalism; 25°C; three parallels
Non-standard residues stand in square brackets, D forms with d. Residues, ends and D or L forms follow the SMILES beside them.
READOUT TYPE: koff rate constant determined by SPR (s⁻¹)

* NCCCC[C@@H]1NC(=O)[C@H](Cc2c[nH]c3ccccc23)NC(=O)[C@H](CCCCN)NC(=O)[C@H](Cc2c[nH]c3ccccc23)NC(=O)[C@H](CCCCN)NC(=O)[C@H](Cc2c[nH]c3ccccc23)NC1=O [c-WKWKWK] (cyclo(WKWKWK)) | 0.82
* NCCCC[C@@H]1NC(=O)[C@H](CCCCN)NC(=O)[C@H](Cc2c[nH]c3ccccc23)NC(=O)[C@H](Cc2c[nH]c3ccccc23)NC(=O)[C@H](Cc2c[nH]c3ccccc23)NC(=O)[C@H](CCCCN)NC1=O [c-WWWKKK] (cyclo(WWWKKK)) | 0.63
* CC(C)C[C@@H]1NC(=O)[C@@H](CCCNC(=N)N)NC(=O)[C@H](CCCCN)NC(=O)[C@H](CC(N)=O)NC(=O)[C@@H](Cc2c[nH]c3ccccc23)NC(=O)[C@H](Cc2c[nH]c3ccccc23)NC1=O [c-LWwNKr, reference compound] (cyclo(LW[dW]NK[dR])) | 1.72
* N=C(N)NCCC[C@@H]1NC(=O)[C@H](CCCNC(=N)N)NC(=O)[C@H](Cc2c[nH]c3ccccc23)NC(=O)[C@H](Cc2c[nH]c3ccccc23)NC(=O)[C@H](Cc2c[nH]c3ccccc23)NC(=O)[C@H](CCCNC(=N)N)NC1=O [c-WWWRRR] (cyclo(WWWRRR)) | 0.40

====

# Lookup of reported Kd keyed by entry
Biological target: bEVs from P. aeruginosa
Test: SPR interaction with immobilized bEVs
Settings: read-out: Dissociation constant KD determined by SPR; P. aeruginosa bEVs on L1 chip; Biacore T200, 25°C, 10 mM HEPES, 150 mM NaCl; steady-state fit; three parallels
Non-standard residues stand in square brackets, D forms with d. Residues, ends and D or L forms follow the SMILES beside them.
READOUT TYPE: Kd (µM)

• NCCCC[C@@H]1NC(=O)[C@H](Cc2c[nH]c3ccccc23)NC(=O)[C@H](CCCCN)NC(=O)[C@H](Cc2c[nH]c3ccccc23)NC(=O)[C@H](CCCCN)NC(=O)[C@H](Cc2c[nH]c3ccccc23)NC1=O [c-WKWKWK] (cyclo(WKWKWK)) = 749
• N=C(N)NCCC[C@@H]1NC(=O)[C@H](CCCNC(=N)N)NC(=O)[C@H](Cc2c[nH]c3ccccc23)NC(=O)[C@H](Cc2c[nH]c3ccccc23)NC(=O)[C@H](Cc2c[nH]c3ccccc23)NC(=O)[C@H](CCCNC(=N)N)NC1=O [c-WWWRRR] (cyclo(WWWRRR)) = 59
• NCCCC[C@@H]1NC(=O)[C@H](CCCCN)NC(=O)[C@H](Cc2c[nH]c3ccccc23)NC(=O)[C@H](Cc2c[nH]c3ccccc23)NC(=O)[C@H](Cc2c[nH]c3ccccc23)NC(=O)[C@H](CCCCN)NC1=O [c-WWWKKK] (cyclo(WWWKKK)) = 100
• CC(C)C[C@@H]1NC(=O)[C@@H](CCCNC(=N)N)NC(=O)[C@H](CCCCN)NC(=O)[C@H](CC(N)=O)NC(=O)[C@@H](Cc2c[nH]c3ccccc23)NC(=O)[C@H](Cc2c[nH]c3ccccc23)NC1=O [c-LWwNKr, reference compound] (cyclo(LW[dW]NK[dR])) = 1040

The measurements presented in this section are drawn from paper PMC10751319.
